Hello, the source for this data is patent US20140135310A1, in case you need it.

- system_tested: H1 histaminergic receptors (Homo sapiens, UniProt P35367)
- Construct: expressed in transfected cells; host or cells: HEK-293 cells
- Sequence (P35367 whole entry): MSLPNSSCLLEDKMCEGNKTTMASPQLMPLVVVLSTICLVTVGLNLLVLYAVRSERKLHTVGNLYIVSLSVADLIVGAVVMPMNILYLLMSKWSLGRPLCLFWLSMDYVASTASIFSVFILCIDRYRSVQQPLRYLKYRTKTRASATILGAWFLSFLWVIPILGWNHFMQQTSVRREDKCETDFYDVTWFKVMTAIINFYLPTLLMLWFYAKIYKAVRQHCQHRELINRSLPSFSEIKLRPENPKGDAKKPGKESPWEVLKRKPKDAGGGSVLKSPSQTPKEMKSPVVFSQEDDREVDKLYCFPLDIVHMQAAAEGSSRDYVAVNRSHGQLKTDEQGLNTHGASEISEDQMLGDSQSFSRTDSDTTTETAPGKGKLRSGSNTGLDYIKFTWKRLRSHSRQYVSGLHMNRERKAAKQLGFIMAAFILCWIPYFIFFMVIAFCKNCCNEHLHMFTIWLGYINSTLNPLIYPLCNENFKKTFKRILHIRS
- protocol_notes: Radioligand binding assay, histaminergic H1 receptors
- stated_conditions: human recombinant (HEK-293 cells), [3H]pyrilamine 1 nM
- Description: The specific ligand binding to the receptors is defined as the difference between the total binding and the non-specific binding determined in the presence of the excess of unlabelled ligand. The results are expressed as a percent of control specific binding ((measured specific binding/control specific binding)×100) and as a percent inhibition of control specific binding (100−((measured specific binding/control specific binding)×100)) obtained in the presence of the test compounds. […]
parameter: inhibition at 1 µM (%)
Answers are plain numbers, in %.

Consider the worked cases shown below.
Would you mind telling me what inhibition at 1 µM value was observed for Cc1cc(S(=O)(=O)NCC2CCN(CCOc3cccc4c3OCCO4)C2)c(C)s1 (centres unmarked) [Compound 312] ?
35

How about Cc1ccc2sc(S(=O)(=O)N[C@H]3CCN(CCCc4noc5cc(F)ccc45)C3)cc2c1 [Compound 229] ?
75

Same read-out for Cc1c(S(=O)(=O)NCC2CN(CCCc3noc4cc(F)ccc34)C2)sc2ccc(F)cc12 [Compound 130] ?
51

Would you mind doing Cc1ccc2sc(S(=O)(=O)NC3CCN(CCCc4noc5cc(F)ccc45)C3)cc2c1 (centres unmarked) [Compound 226] as well?
73

Next record, please: O=S(=O)(NCC1CCN(CCOc2cccc3c2OCCO3)C1)c1ccc2c(c1)CCO2 (centres unmarked) [Compound 306]
57

Hi! Can you tell me inhibition at 1 µM for each of these compounds?
1. Cn1ccc2cc(S(=O)(=O)NCC3CCN(CCOc4cccc5c4OCCO5)C3)ccc21 (centres unmarked) [Compound 308]
2. Cc1c(S(=O)(=O)NC2CCN(CCCc3noc4cc(F)ccc34)C2)sc2ccc(F)cc12 (centres unmarked) [Compound 28]
3. Cc1cccc(S(=O)(=O)NC2CN(CCOc3cccc4[nH]ccc34)C2)c1 [Compound 48]

37
63
21

###

Could you please report measured inhibition at 1 µM for the items listed next?
- system_tested: dopaminergic receptors D3 (Homo sapiens, UniProt P35462)
- Sequence (P35462 whole entry): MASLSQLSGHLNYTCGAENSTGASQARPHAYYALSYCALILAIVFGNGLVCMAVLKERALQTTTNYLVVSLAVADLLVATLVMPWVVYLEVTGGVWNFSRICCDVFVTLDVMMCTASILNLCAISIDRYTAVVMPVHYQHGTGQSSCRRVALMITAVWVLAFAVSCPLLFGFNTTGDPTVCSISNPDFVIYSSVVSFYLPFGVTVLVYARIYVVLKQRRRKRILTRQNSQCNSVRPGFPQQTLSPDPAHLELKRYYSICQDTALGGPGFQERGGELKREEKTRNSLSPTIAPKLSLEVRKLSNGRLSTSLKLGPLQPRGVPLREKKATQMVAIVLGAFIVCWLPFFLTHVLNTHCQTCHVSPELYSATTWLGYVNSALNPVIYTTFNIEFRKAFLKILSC
- protocol_notes: Radioligand binding assay, dopaminergic D3 receptors
- stated_conditions: test compound 1×10^−6 M
Numbers only, in %.

Some solved entries appear below for comparison.
Request body: readout inhibition at 1 µM, system dopaminergic receptors D3 (Homo sapiens, UniProt P35462), query O=S(=O)(N[C@@H]1CCN(CCCc2noc3cc(F)ccc23)C1)c1ccc2cc(Cl)ccc2c1 . Return the value.
94

Query O=S(=O)(NC1CCN(CCCc2noc3cc(F)ccc23)C1)c1ccc(Cl)c(F)c1 (centres unmarked) next
49

Consider next the compound Cn1ccc2c(S(=O)(=O)NC3CCN(CCCc4noc5cc(F)ccc45)C3)cccc21 (centres unmarked) in the same way.
81

And for O=S(=O)(NCC1CN(CCCc2c[nH]c3ccc(F)cc23)C1)c1ccc2ccccc2c1 ?
87

Proceed to Cn1ccc2cc(S(=O)(=O)NCC3CCN(CCOc4cccc5c4OCCO5)C3)ccc21 (centres unmarked)
43

Now consider O=S(=O)(NC1CCN(CCOc2nsc3ccccc23)C1)c1ccc2ccccc2c1 (centres unmarked) and answer again.
95

How about this compound: O=S(=O)(NCC1CCN(CCOc2cccc3c2OCCO3)C1)c1cccc(O)c1 (centres unmarked)
52

Alright, here's another compound for you.
# get_value(readout= inhibition at 1 µM, system= dopaminergic receptors D3 (Homo sapiens, UniProt P35462)) for O=S(=O)(NC1CCN(CCCc2noc3cc(F)ccc23)C1)c1ccc2c(c1)OCC2 (centres unmarked)
52
